target: Short transient receptor potential channel 4 (Mus musculus) (UniProt Q9QUQ5); assay: calcium flux activators in TRPC4/5HT1a cells, counter-screen for TRPC4 activator project, cell-based, second counter screen, HEK293 TRPC4/5HT1a, Fluo-4 (AID 434977); conditions: Fluo-4 calcium flux, at 10 µM
Calls of active or inactive are those of the source.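 How the source made its calls: active means calcium signal rise above buffer-control mean plus 5 SD in both duplicates, and also a hit in the primary screen; inactive means the rest.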
Log the outcome using a class from active, inactive

Input: What call does the record list for COc1cc(OC)c(OC)cc1CCC(C)NCCC(c1ccccc1)c1ccccc1 (stereo not given) ?
Output: active

Input: What outcome does the record of this test show for `CCCc1nc2oc3c(NCCN(C)C)ncnc3c2c2c1CCCC2` ?
Output: inactive

Input: Hi team, can someone confirm the assay call for `CCN(CC)CC(=O)Nc1ccccc1SCC(=O)Nc1ccsc1C(=O)OC` ?
Output: inactive

Input: Tell me the assay call for `CCCC(=O)N/C(N)=N/c1nc(C)c2ccccc2n1` please.
Output: inactive

Input: Could you please tell me the result logged for `COc1ncnc2sc3c(c12)CCCC3` in this assay?
Output: inactive

Input: Query: recorded result category for `Cc1ccc(C[n+]2cc(-c3ccc(Cl)cc3)n3c2CCC3)cc1` in this test
Output: inactive

Input: State the result this test recorded for `CCCc1ccc(OCc2ccc(C(=O)N3CCCC3)o2)cc1` .
Output: inactive

Input: Tell me the assay call for CC(OCC(O)CN(C)CCOc1ccccc1)c1ccc(Cl)cc1 (stereo not given) please.
Output: inactive

Input: Dear all, I need the recorded test outcome for `CCN1CCN(c2ccc(S(=O)(=O)N3CCCCC3)cc2NC(=O)c2cccc(OC(F)F)c2)CC1` , thank you.
Output: inactive

Input: Hi, sorry to bother you, what did the test record for `CC(C)C(=O)N1CCN(c2nc(-c3ccccc3)c3c(c2C#N)CCCC3)CC1` ?
Output: inactive

Input: # lookup: test call for `CCN(CC)CCN(Cc1cc2cc3c(cc2[nH]c1=O)OCCO3)C(=O)NC1CCCCC1`
Output: inactive

Input: For `CCCCN(CC)CCCNC(=O)c1cc2cc3ccc(C)cc3nc2o1` , what call appears in the results of this test?
Output: inactive

Input: Fill in: this test's call for `CCOC(=O)c1sc2c(c1C)c(=O)n(CCO)c(=O)n2Cc1ccccc1` is ___
Output: inactive

Input: Hello, I am checking results. What call was entered for `CCCN1CN(Cc2ccco2)c2nc3ccccc3n2C1` ?
Output: inactive

Input: # outcome recorded in this test, key = `CC(=O)C1=C(S(=O)(=O)c2ccc(C)cc2)CS(=O)(=O)C1`
Output: inactive

Input: What was the test verdict on `CCOC(=O)C1(Cc2ccccc2)CCN(Cc2ccc(C)s2)CC1` ?
Output: inactive

Input: For this molecule, state the assay outcome: `CC(=O)Nc1cccc(C(=O)NCC2(N3CCCCC3)CCCCC2)c1`
Output: inactive

Input: What was the test verdict on CN(CC1CCCN(CCc2cccc(C(F)(F)F)c2)C1)C(=O)c1cc2ccccc2o1 (stereo not given) ?
Output: inactive

Input: So what was the verdict on `COc1ccc(Cl)cc1N/C(N)=N/c1nc(C)cc(C)n1` in this test?
Output: inactive

Input: Record lookup: outcome of this test for `Clc1ccccc1CSc1nc2ccncc2[nH]1` ?
Output: inactive

Input: What was the test verdict on CN(C)C(CNC(=O)Nc1cccc(Cl)c1)c1cccnc1 (stereo not given) ?
Output: inactive

Input: Could you please tell me the result logged for `CCOc1ccc(-n2c(SCC(=O)O)nc3sc4c(c3c2=O)CCCC4)cc1` in this assay?
Output: inactive

Input: What was the test verdict on Cc1noc(C)c1CCC(=O)NC1CCCN(Cc2ccc(CC(C)C)cc2)C1 (stereo not given) ?
Output: active

Input: Assay outcome for `CN(C)CCCn1c(=O)n(CCc2ccccc2)c(=O)c2c3c(sc21)CCCCC3` : what was it?
Output: inactive

Input: How was Cc1c(N(C)S(=O)(=O)c2cc(C(=O)NCC3CCCO3)ccc2Cl)c(=O)n(-c2ccccc2)n1C (stereo not given) classified in this test?
Output: inactive

Input: // return assay outcome for COc1ccc(NC(=O)c2cccc(N3C(=O)C4CC=C(C)CC4C3=O)c2)c(OC)c1 (stereo not given)
Output: inactive

Input: # fetch the recorded call for CN(C)c1ccc(NC(=O)CN2C3CCCC2CC(NC(=O)c2ccccc2)C3)cc1 (stereo not given) here
Output: inactive

Input: What was the test verdict on `COCCNC(=O)/C(C#N)=C/c1cc(C(C)C)c(OC)cc1C` ?
Output: inactive

Input: Hey, what did the test say about Cc1ccc(-c2csc(NC(=O)C3CC=CCC3C(=O)O)c2C(=O)OC(C)C)cc1 (stereo not given) ?
Output: inactive

Input: Recorded test call requested for `COc1ccc2c(c1)sc(N)[n+]2Cc1cc(C)cc2cccnc12`
Output: inactive

Input: Assay result, entry `CCCN(CCC)CCNC(=O)CCC(=O)Nc1ccc2nc(N3CCOCC3)cc(C)c2c1` — outcome?
Output: active

Input: Assay result, entry O=C(Nc1cccc(Cl)c1)N1CCN2C(=O)c3ccccc3C12c1ccccc1 (stereo not given) — outcome?
Output: inactive

Input: Status in this test for `Cc1cc(-c2csc3ncnc(N4CCN(C)CC4)c23)cc(C)c1C` ?
Output: inactive

Input: Please let me know the test result on file for O=C(Nc1ccc(F)cc1)N1CCN2C(=O)c3ccccc3C12c1ccccc1 (stereo not given) .
Output: inactive

Input: Per the assay record, what outcome was assigned to `CCn1cc(CNCc2cn(-c3ccccc3C)nc2-c2ccc(OC)c(F)c2)cn1` ?
Output: inactive

Input: Could you check what this test reported for `CCOc1ccc(-n2cnnn2)cc1S(=O)(=O)NCc1ccccc1` ?
Output: inactive

Input: Test call, this molecule: `COc1ccc(/C=N/Nc2nc3ccccc3s2)cc1O`
Output: inactive

Input: Entry `O=[N+]([O-])c1ccccc1CN1CCN(S(=O)(=O)c2ccccc2)CC1` : call = ?
Output: inactive

Input: Please let me know the test result on file for `CCOc1ccc(Cl)cc1/C=N/O` .
Output: inactive

Input: Could you kindly confirm the outcome this assay logged for `Cc1cccc(C)c1N1CCc2cn[nH]c21` ?
Output: inactive

Input: Hello, I am checking results. What call was entered for `Cc1ccc(C)c(-n2cc(CNCCCn3cccn3)c(-c3ccccc3)n2)c1` ?
Output: active

Input: Hey, what did the test say about `CN(CC(=O)Nc1sc2c(c1C#N)CCCCC2)Cc1nc2ccccc2c(=O)[nH]1` ?
Output: inactive

Input: Please let me know the test result on file for CC(C)c1ccc(C(C)NCCS(=O)(=O)c2ccc(Br)cc2)cc1 (stereo not given) .
Output: inactive

Input: Outcome? `Cn1c(-c2ccc(F)cc2)cnc1NCc1ccc(F)cc1F`
Output: inactive

Input: Check the results log: what was the call for OC(CNCCC(c1ccccc1)c1ccccc1)COc1ccccc1 (stereo not given) ?
Output: inactive
